Origin of values: the RNAGym collection of RNA variant scans (doi:10.1073/pnas.2313332121)

B1: TPR t1 (parent)
chain: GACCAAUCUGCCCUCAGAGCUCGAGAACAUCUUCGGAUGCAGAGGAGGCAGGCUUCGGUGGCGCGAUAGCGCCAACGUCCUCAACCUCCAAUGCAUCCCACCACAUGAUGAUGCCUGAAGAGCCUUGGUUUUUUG

# Variants of: B1
# assay comment: polymerase ribozyme fitness, log enrichment relative to wild type (log ratio); higher = more active; in vitro selection for triplet polymerase activity
measured parameter: polymerase ribozyme fitness (log ratio)
Reply briefly: the number, and no unit.

// solved cases for polymerase ribozyme fitness (log ratio) follow
| mutation string | readout number |
| --- | --- |
| G45A C56G U78A G122A U129G | -1.63 |
| C15A A46U G117U C124U U132C | -0.364 |
| C12U C62A C73U G77U | -3.65 |
| C31U G57C U106A | -0.497 |
| C4G G44C C62U | -2.44 |
| G47U G117U | -2.78 |
| G19A A29G | -3.47 |
| G63A G93U G110A | -4.5 |
| C11G C49U C72G | -0.598 |
| C49U C53U C79A G120A G128A | -3.2 |

Query: Which polymerase ribozyme fitness (log ratio) value belongs to C82A U87A ?
Response: -0.237

Query: Which polymerase ribozyme fitness (log ratio) value belongs to C3G C62U ?
Response: -1.58

Query: Which polymerase ribozyme fitness (log ratio) value belongs to U9C G39A A41U C73G G120U ?
Response: -0.71

Query: Which polymerase ribozyme fitness (log ratio) value belongs to G47C C72U C94U ?
Response: -2.45

Query: Which polymerase ribozyme fitness (log ratio) value belongs to C89A G93A U106A ?
Response: -3.07

Query: Which polymerase ribozyme fitness (log ratio) value belongs to U33A G48U U55C U109C A121G C124A G127C ?
Response: -5.45

Query: Which polymerase ribozyme fitness (log ratio) value belongs to A6G C11U G48C C64U G113A G117A ?
Response: -7.08

Query: Which polymerase ribozyme fitness (log ratio) value belongs to G39A C94U ?
Response: -0.565

Query: Which polymerase ribozyme fitness (log ratio) value belongs to A6G A24C C88G C102A A111U G122C U133G ?
Response: -6.51

Query: Which polymerase ribozyme fitness (log ratio) value belongs to G60C C102A ?
Response: -3.75

Query: Which polymerase ribozyme fitness (log ratio) value belongs to C53A G60A G69C ?
Response: -3.47

Query: Which polymerase ribozyme fitness (log ratio) value belongs to C12G U14G G57A G113U ?
Response: -7.24

Query: Which polymerase ribozyme fitness (log ratio) value belongs to U7C G19U U54C A66C ?
Response: -5.92

Query: Which polymerase ribozyme fitness (log ratio) value belongs to C12G U14A U38G C76U C85G ?
Response: -3.19

Query: Which polymerase ribozyme fitness (log ratio) value belongs to C4U A16C C64U ?
Response: -4.16

Query: Which polymerase ribozyme fitness (log ratio) value belongs to C8U U9A C11A C13A G44U C73A A100U C102U ?
Response: -4.18

Query: Which polymerase ribozyme fitness (log ratio) value belongs to A16C G52A A119G ?
Response: 0.273

Query: Which polymerase ribozyme fitness (log ratio) value belongs to C15U C56U ?
Response: -1.21

Query: Which polymerase ribozyme fitness (log ratio) value belongs to A16U C62U C94U ?
Response: -1.79

Query: Which polymerase ribozyme fitness (log ratio) value belongs to U14G G42U G45C C64U C101U C123A G135U ?
Response: -4.44

Query: Which polymerase ribozyme fitness (log ratio) value belongs to G36U U78G C97A ?
Response: -0.315

Query: Which polymerase ribozyme fitness (log ratio) value belongs to A50C G117C ?
Response: -3.5
